assay: Selectivity index, ratio of ED50 for human HepG2 cells to MIC for Escherichia coli K-12 W3110 ATCC 27325; format: toxicity; conditions: read-out: Selectivity Index
Square brackets hold non-standard residues; d marks the D form. Peptide text beside a SMILES is read from it. Nphe = O=C(O)CNCc1ccccc1; Nlys = NCCCCNCC(=O)O
Define the label as 1 when selectivity ratio is strictly less than 2 and as 0 in all remaining cases.

Would you please look over these solved cases?
NCCCCNCC(=O)N(CC(=O)N(CC(=O)N(CCCCN)CC(=O)N(CC(=O)N(CC(=O)N(CCCCN)CC(=O)N(CC(=O)N(CC(=O)N(CCCCN)CC(=O)N(CC(=O)N(CC(N)=O)Cc1ccccc1)Cc1ccccc1)Cc1ccccc1)Cc1ccccc1)Cc1ccccc1)Cc1ccccc1)Cc1ccccc1)Cc1ccccc1 (H-[Nlys][Nphe][Nphe][Nlys][Nphe][Nphe][Nlys][Nphe][Nphe][Nlys][Nphe][Nphe]-NH2)	0
NCCCCNCC(=O)N(CC(=O)N(CC(=O)N(CCCCN)CC(=O)N(CC(=O)N(CC(N)=O)Cc1ccccc1)Cc1ccccc1)Cc1ccccc1)Cc1ccccc1 (H-[Nlys][Nphe][Nphe][Nlys][Nphe][Nphe]-NH2)	1
CC(c1ccccc1)N(CC(=O)N(CCCCN)CC(=O)N(CC(=O)N(CC(=O)N(CCCCN)CC(=O)N(CC(=O)N(CC(N)=O)[C@@H](C)c1ccccc1)[C@@H](C)c1ccccc1)Cc1ccc(F)cc1)Cc1ccc(F)cc1)C(=O)CN(C(=O)CN(CCCCN)C(=O)CN(Cc1ccc(F)cc1)C(=O)CN(Cc1ccc(F)cc1)C(=O)CNCCCCN)[C@@H](C)c1ccccc1 (single isomer, unassigned)	0

Input `C[C@@H](c1ccccc1)N(CC(N)=O)C(=O)CN(C(=O)CN(CCCCCCN)C(=O)CN(C(=O)CN(C(=O)CNCCCCCCN)[C@@H](C)c1ccccc1)[C@@H](C)c1ccccc1)[C@@H](C)c1ccccc1` ; condition: selectivity ratio strictly below 2. Does it hold? 1

Input `NCCCCNCC(=O)N(CC(=O)N(CC(=O)N(CCCCN)CC(=O)N(CC(=O)N(CC(=O)N(CCCCN)CC(=O)N(CC(=O)N(CC(N)=O)Cc1cccc(F)c1)Cc1cccc(F)c1)Cc1cccc(F)c1)Cc1cccc(F)c1)Cc1cccc(F)c1)Cc1cccc(F)c1` ; condition: selectivity ratio strictly below 2. Does it hold? 0
